Cited source: patent US5225528A

Experimental system: AVP-V1 sites (Rattus norvegicus)
Construct: crude membrane preparation of male rat liver (AVP-V1 sites); from tissue; host or cells: male rat liver, crude membranes
Sequence (P30560 whole entry): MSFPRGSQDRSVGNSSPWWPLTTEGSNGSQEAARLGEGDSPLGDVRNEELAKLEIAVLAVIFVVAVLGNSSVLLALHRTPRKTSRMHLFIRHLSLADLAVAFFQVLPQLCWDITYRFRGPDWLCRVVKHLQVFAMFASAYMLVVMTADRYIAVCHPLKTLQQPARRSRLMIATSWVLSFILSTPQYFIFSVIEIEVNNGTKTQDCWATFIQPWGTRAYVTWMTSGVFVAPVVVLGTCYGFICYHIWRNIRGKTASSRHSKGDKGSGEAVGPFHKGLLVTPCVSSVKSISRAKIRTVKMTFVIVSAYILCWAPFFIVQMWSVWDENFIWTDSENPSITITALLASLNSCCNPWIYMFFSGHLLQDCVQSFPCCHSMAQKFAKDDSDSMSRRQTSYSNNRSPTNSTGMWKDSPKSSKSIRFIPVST
Assay explanation: [^3 H]AVP binding to crude membrane preparation of male rat liver (AVP-V1 sites)
Experimental context: read-out: Receptor Binding Results IC50 (nM) [^3 H]-AVP-V1
Numbered stars: 1 amine (or outer) side, 2 acyl side, 3 side chain; on linkers, the order of the positions; unused ones are H or OH. Square brackets hold non-standard residues; d marks the D form. Peptide text beside a SMILES is read from it. X4 = O=C([C@@H](Cc1cn(COCc2ccccc2)cn1)N[*:1])[*:2]; dPiz(1,6-dehydro) = O=C(O)[C@H]1CCC=NN1; d2Nal = N[C@H](Cc1ccc2ccccc2c1)C(=O)O; dNMeY = CN[C@H](Cc1ccc(O)cc1)C(=O)O; dNMeH = CN[C@H](Cc1c[nH]cn1)C(=O)O; Pip(4-aza) = O=C(O)[C@@H]1CNCCN1; dNMeF = CN[C@H](Cc1ccccc1)C(=O)O; Pip = O=C(O)[C@@H]1CCCCN1; dPip = O=C(O)[C@H]1CCCCN1
Threshold 9000 nM. IC50 below it: T. IC50 at it or above: F.

Please let me know if CC[C@H](C)[C@@H]1NC(=O)[C@@H](Cc2c[nH]c3ccccc23)NC(=O)[C@@H]2CCCN2C(=O)[C@@H](Cc2c[nH]c3ccccc23)NC(=O)[C@@H]2CNCCN2C(=O)[C@H]2CCCCN2C1=O [Example 88] (cyclo(I[dPip][Pip(4-aza)][dW]P[dW])) shows IC50 below 9000 nM.
T

Then CC[C@H](C)[C@@H]1NC(=O)[C@@H](Cc2c[nH]c3ccccc23)NC(=O)[C@@H]2CCCN2C(=O)[C@@H](Cc2c[nH]cn2)N(C)C(=O)[C@@H]2CCCCN2C(=O)[C@H]2CCCCN2C1=O [Example 19] (cyclo(I[dPip][Pip][dNMeH]P[dW])) ?
F

Then CC[C@H](C)[C@@H]1NC(=O)[C@@H](Cc2ccccc2)NC(=O)[C@@H]2CCCN2C(=O)[C@@H](Cc2ccccc2)N(C)C(=O)[C@@H]2CCCCN2C(=O)[C@H]2CCC=NN2C1=O [Example 112] (cyclo(I[dPiz(1,6-dehydro)][Pip][dNMeF]P[dF])) ?
T

Then CC[C@H](C)[C@@H]1NC(=O)[C@@H](Cc2ccc3ccccc3c2)NC(=O)[C@@H]2CCCN2C(=O)[C@@H](Cc2ccccc2)N(C)C(=O)[C@@H]2CNCCN2C(=O)[C@H]2CCCCN2C1=O [Example 171] (cyclo(I[dPip][Pip(4-aza)][dNMeF]P[d2Nal])) ?
F

Then CC[C@H](C)[C@@H]1NC(=O)[C@@H](Cc2c[nH]c3ccccc23)NC(=O)[C@@H]2CCCN2C(=O)[C@@H](Cc2cn(COCc3ccccc3)cn2)NC(=O)[C@@H]2CNCCN2C(=O)[C@H]2CCCCN2C1=O [Example 177] (cyclo([dW]I[dPip][Pip(4-aza)][X4]P)) ?
F

Then CC[C@H](C)[C@@H]1NC(=O)[C@@H](Cc2c[nH]c3ccccc23)NC(=O)[C@@H]2CCCN2C(=O)[C@@H](Cc2ccc(O)cc2)N(C)C(=O)[C@@H]2CCCCN2C(=O)[C@H]2CCCCN2C1=O [Example 137] (cyclo(I[dPip][Pip][dNMeY]P[dW])) ?
F

Then CC[C@H](C)[C@@H]1NC(=O)[C@@H](Cc2c[nH]c3ccccc23)NC(=O)[C@@H]2CCCN2C(=O)[C@@H](Cc2c[nH]cn2)NC(=O)[C@@H]2CCCCN2C(=O)[C@H]2CCCCN2C1=O [Example 17] (cyclo(I[dPip][Pip][dH]P[dW])) ?
T

====

Experimental system: uterine OT receptors (Rattus norvegicus, UniProt P70536)
Construct: from tissue; host or cells: uterus of DES-treated rats, crude membranes
Sequence (P70536 1-388): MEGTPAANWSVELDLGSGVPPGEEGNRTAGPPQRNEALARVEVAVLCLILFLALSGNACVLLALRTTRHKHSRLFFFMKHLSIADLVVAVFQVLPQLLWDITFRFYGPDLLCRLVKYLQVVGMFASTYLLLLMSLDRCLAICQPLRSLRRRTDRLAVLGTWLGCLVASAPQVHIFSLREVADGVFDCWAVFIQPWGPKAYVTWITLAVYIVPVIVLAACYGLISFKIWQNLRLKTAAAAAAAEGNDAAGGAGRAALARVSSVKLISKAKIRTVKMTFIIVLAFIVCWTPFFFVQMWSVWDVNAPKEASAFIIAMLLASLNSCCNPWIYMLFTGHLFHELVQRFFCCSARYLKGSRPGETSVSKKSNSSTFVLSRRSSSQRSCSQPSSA
Assay explanation: [^3 H]OT binding to uterine OT receptors, crude membrane preparation of uteri from DES-treated rats
Experimental context: 1 h; @ 1,000 (nM); read-out: [^3 H]OT: percent inhibition of radioligand at the given concentration
Square brackets hold non-standard residues; d marks the D form. Peptide text beside a SMILES is read from it. * marks the point of attachment. dNMeF = CN[C@H](Cc1ccccc1)C(=O)O; dOrn = NCCC[C@@H](N)C(=O)O; Pip = O=C(O)[C@@H]1CCCCN1; dPip = O=C(O)[C@H]1CCCCN1; ClZ = O=C(OCc1ccccc1Cl)*; Cbz = O=C(OCc1ccccc1)*; Boc = CC(C)(C)OC(=O)*; Bn = c1ccc(C*)cc1
Reported endpoint: inhibition at 1 µM

Query inhibition at 1 µM on uterine OT receptors (Rattus norvegicus, UniProt P70536) for CC[C@H](C)[C@@H]1NC(=O)[C@@H](Cc2ccccc2)NC(=O)[C@@H]2CCCN2C(=O)[C@@H](CCCNC(=O)OCc2ccccc2)NC(=O)[C@@H]2CCCCN2C(=O)[C@H]2CCCCN2C1=O [Example 27] (cyclo(I[dPip][Pip][dOrn](Cbz)P[dF]))
79%

Then CC[C@H](C)[C@@H]1NC(=O)[C@@H](Cc2ccc(OCc3ccccc3)cc2)NC(=O)[C@@H]2CCCN2C(=O)[C@@H](Cc2ccccc2)N(C)C(=O)[C@H](CCCCNC(=O)OC(C)(C)C)NC(=O)[C@H]2CCCCN2C1=O [Example 142] (cyclo(I[dPip]K(Boc)[dNMeF]P[dY](Bn))) ?
12%

Then CC[C@H](C)[C@@H]1NC(=O)[C@@H](Cc2ccc(OCc3ccccc3)cc2)NC(=O)[C@@H]2CCCN2C(=O)[C@@H](Cc2ccccc2)N(C)C(=O)[C@H](CCCCN)NC(=O)[C@H]2CCCCN2C1=O [Example 145] (cyclo(I[dPip]K[dNMeF]P[dY](Bn))) ?
9%

Then CC[C@H](C)[C@@H]1NC(=O)[C@@H](Cc2ccccc2)NC(=O)[C@@H]2CCCN2C(=O)[C@@H](CCCCNC(=O)OCc2ccccc2Cl)NC(=O)[C@@H]2CCCCN2C(=O)[C@H]2CCCCN2C1=O [Example 26] (cyclo(I[dPip][Pip][dK](ClZ)P[dF])) ?
86%

====

Experimental system: uterine OT receptors (Rattus norvegicus, UniProt P70536)
Construct: from tissue; host or cells: uterus of DES-treated rats, crude membranes
Sequence (P70536 1-388): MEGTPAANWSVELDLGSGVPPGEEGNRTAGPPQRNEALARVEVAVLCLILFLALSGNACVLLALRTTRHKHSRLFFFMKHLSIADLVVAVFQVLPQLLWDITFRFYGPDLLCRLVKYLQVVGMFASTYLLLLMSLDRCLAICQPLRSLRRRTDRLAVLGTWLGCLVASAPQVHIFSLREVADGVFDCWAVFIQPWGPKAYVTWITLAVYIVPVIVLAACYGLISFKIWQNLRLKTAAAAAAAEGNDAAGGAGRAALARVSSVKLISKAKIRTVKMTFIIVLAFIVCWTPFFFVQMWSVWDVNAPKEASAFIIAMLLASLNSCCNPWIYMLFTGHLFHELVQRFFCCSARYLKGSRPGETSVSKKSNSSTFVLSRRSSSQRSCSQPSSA
Assay explanation: [^3 H]OT binding to uterine OT receptors, crude membrane preparation of uteri from DES-treated rats
Experimental context: rat uterus membranes, 1 nM [^3 H]OT; read-out: Receptor Binding Results IC50 (nM) [^3 H]OT
Counter-ions that a name gives are not always drawn. Square brackets hold non-standard residues; d marks the D form. Peptide text beside a SMILES is read from it. * marks the point of attachment. dPip(4-aza,4-Cbz) = O=C(O)[C@H]1CN(C(=O)OCc2ccccc2)CCN1; Pip = O=C(O)[C@@H]1CCCCN1; dPip = O=C(O)[C@H]1CCCCN1; NMeA = CN[C@@H](C)C(=O)O; Orn = NCCC[C@H](N)C(=O)O; dNMeA = CN[C@H](C)C(=O)O; Boc = CC(C)(C)OC(=O)*
Reported endpoint: IC50 (nM)
Give just the numeric value; nM need not be written.

For CC[C@H](C)[C@@H]1NC(=O)[C@@H](Cc2c[nH]c3ccccc23)NC(=O)[C@@H]2CCCN2C(=O)[C@@H](Cc2c[nH]cn2)NC(=O)[C@H](CCCNC(=O)OC(C)(C)C)NC(=O)[C@H]2CCCCN2C1=O [Example 129, acetate salt] (cyclo(I[dPip][Orn](Boc)[dH]P[dW])) , what is its reported IC50?
100

Then CC[C@H](C)[C@@H]1NC(=O)[C@@H](Cc2ccccc2)NC(=O)[C@@H]2CCCN2C(=O)[C@@H](Cc2ccccc2)NC(=O)[C@H](C)N(C)C(=O)[C@@H](C)N(C)C1=O [Example 54] (cyclo(I[dNMeA][NMeA][dF]P[dF])) ?
3000

Then CC[C@H](C)[C@@H]1NC(=O)[C@@H](Cc2ccccc2)NC(=O)[C@@H]2CCCN2C(=O)[C@@H](Cc2ccccc2)NC(=O)[C@@H]2CCCCN2C(=O)[C@H]2CN(C(=O)OCc3ccccc3)CCN2C1=O [Example 83] (cyclo(I[dPip(4-aza,4-Cbz)][Pip][dF]P[dF])) ?
940
